Measured melting point accompanies every entry in the list below.

Past entries and their recorded results:
• O=C(NNS(=O)(=O)c1ccccc1)c1ccccc1Br = 154 to 156 °C
• CC(C)C(C(=O)CCC(NC(=O)OCc1ccccc1)C(=O)OCc1ccccc1)C(=O)OC(C)(C)C (stereo not drawn) = 69 to 71 °C
• CC(C)(C)C(=O)NNc1ccc([N+](=O)[O-])cc1Cl = 123 °C
• O=C(Nc1nc(C(F)(F)F)c(I)s1)c1c(Cl)cccc1Cl = 157 to 159 °C
• Cc1c(C=CCCCCCCCCCC(=O)O)cccc1C(=O)c1ccc(Cl)cc1 = 49 °C

Challenge: Please give the documented melting point of O=C(O)c1cc(C#Cc2ccccc2)cc2c1NCCC2
Response given: 187 to 188 °C

Challenge: Please give the documented melting point of C=CC(=O)NCCCCCCCCCCCCOc1ccccc1
Response given: 69 to 71 °C

Challenge: Please give the documented melting point of NCCOc1ccc(C(=C(c2ccc(F)cc2)C(F)(F)F)c2ccccc2)cc1
Response given: 83 to 89 °C

====

Measured melting point accompanies every entry in the list below.

Past entries and their recorded results:
- COc1ccc(C(=O)C2CCN(CCCO)CC2)cc1: 102 to 105 °C
- Cc1nn(C)c2ncc3c(c12)CC(C)CC3 (stereo not drawn): 121 to 123 °C

Attention now shifts to the item below.
Challenge: Please give the documented melting point of CCCC(=O)Nc1cscn1
Response given: 63 to 66 °C

====

VALUE KIND: melting point

Past entries and their recorded results:
* COC(=O)c1ccccc1-c1cc(F)cc(OCc2ccc3c(-c4ccoc4)cc(C#N)nc3c2)c1 | 152 to 154 °C
* c1ccc(-c2noc(-c3cc4c(cn3)[nH]c3ccccc34)n2)cc1 | 279 to 283 °C
* CC1=CC(O)C(OC(=O)c2ccccc2Cl)C(C)(C)CC1=O (stereo unspecified) | 92.5 to 94 °C
* NS(=O)(=O)c1cccc(C=O)c1 | 108 to 109 °C

Challenge: Please give the documented melting point of CNc1nc(Cl)c(OC(F)F)c(OC)n1
Response given: 49 to 53 °C

Challenge: Please give the documented melting point of CN(C)N(C)C(=O)NC1c2ccccc2Oc2ccccc21
Response given: 141 to 142 °C

====

Measured melting point accompanies every entry in the list below.

Past entries and their recorded results:
* COc1ccc(CC2Cc3cc(C)cnc3C(OC(C)=O)C2)cc1 (single isomer, unassigned; (+)) | 94 to 98 °C
* Cc1ccc(-c2nc(CCl)co2)s1 | 84 to 85 °C
* CN(C)CCc1ccc(N)cc1 | 40 °C
* O=C(O)c1cccc(-c2ccc3c(c2)N(c2cc(Cl)cc(Cl)c2)CC3)c1 | 210 to 211 °C
* N#CCC(O)(c1ccc(-c2ccccc2)cc1)c1ccc(-c2ccccc2)cc1 | 168 to 170 °C

Challenge: Please give the documented melting point of COc1ccc2c(c1)CCC1CCNC(=O)C(CC(C)NC(C)C)=C21 (stereo unspecified)
Response given: 118 to 126 °C

Challenge: Please give the documented melting point of COc1ccc(CCNC(=O)CCCCC(=O)NCCNc2ccccc2)cc1OC
Response given: 109 to 111 °C

Challenge: Please give the documented melting point of CCN(CC)c1ccc(N=Nc2ccc(C#N)c(C#N)c2)c(NC(C)=O)c1
Response given: 181 to 182 °C

Challenge: Please give the documented melting point of COc1cc(Nc2cc(C(=O)O)c(C(=O)O)cc2Nc2ccccc2)cc(OC)c1OC
Response given: 145 to 146 °C

Challenge: Please give the documented melting point of Clc1cc(N2CCNCC2)c(Cl)nn1
Response given: 111 to 115 °C

Challenge: Please give the documented melting point of O=C(Nc1ccc(F)cc1)NC1C(=O)N(CC(=O)N2CCCC2)c2ccccc2N(C2CCCCC2)C1=O (stereo unspecified)
Response given: 181 to 183 °C
